- EXPERIMENT SUMMARY: logP by HPLC on reversed-phase column (C 18), EEC Directive 79/831 Annex V.A8, Method B (0.1% aqueous formic acid / acetonitrile, 40°C)
- Format: physicochemical
- EXPERIMENTAL PARAMETERS: c18 reversed-phase hplc; LogP method B: HPLC reversed-phase C 18, 40°C, 0.1% aqueous formic acid / acetonitrile
If the reported chromatographic logP equals or exceeds 4, assign Y. If not, assign N.

[
  {
    "COMPOUND STRUCTURE STRING": "COc1cscc1C(=O)N(C1CC1)S(=O)(=O)c1cccc(Cl)c1Cl",
    "CLASSIFICATION": "N"
  },
  {
    "COMPOUND STRUCTURE STRING": "CCOc1nn(C)cc1C(=O)N(C1CC1)S(=O)(=O)c1ccc(Oc2ccc(C(F)(F)F)cc2)c(Cl)c1",
    "CLASSIFICATION": "Y"
  },
  {
    "COMPOUND STRUCTURE STRING": "CCOc1nn(C)cc1C(=O)N(C1CC1)S(=O)(=O)c1ccc(Oc2ccc(Br)cc2)c(Cl)c1",
    "CLASSIFICATION": "Y"
  },
  {
    "COMPOUND STRUCTURE STRING": "CCc1nn(C)c(F)c1C(=O)N(C1CC1)S(=O)(=O)c1ccc(Br)cc1Cl",
    "CLASSIFICATION": "N"
  },
  {
    "COMPOUND STRUCTURE STRING": "Cc1nn(C)c(N(C)C)c1C(=O)N(C1CC1)S(=O)(=O)c1ccc(Cl)c(Cl)c1Cl",
    "CLASSIFICATION": "N"
  },
  {
    "COMPOUND STRUCTURE STRING": "CCOc1nn(C)cc1C(=O)N(C1CC1)S(=O)(=O)c1ccc(Oc2cccc(Cl)c2)c(Cl)c1",
    "CLASSIFICATION": "Y"
  },
  {
    "COMPOUND STRUCTURE STRING": "CCCCCc1ccc(Oc2ccc(S(=O)(=O)N(C(=O)c3cn(C)nc3OCC)C3CC3)c(Cl)c2)cc1",
    "CLASSIFICATION": "Y"
  }
]
